Where do the numbers come from? From paper PMC7796287.

Target: xanthine oxidase (XO) (Bos taurus, UniProt P80457)
Construct: 20 µL of 0.1 unit XO enzyme (bovine milk) in buffer; from tissue; host or cells: bovine milk
Sequence (P80457 whole entry): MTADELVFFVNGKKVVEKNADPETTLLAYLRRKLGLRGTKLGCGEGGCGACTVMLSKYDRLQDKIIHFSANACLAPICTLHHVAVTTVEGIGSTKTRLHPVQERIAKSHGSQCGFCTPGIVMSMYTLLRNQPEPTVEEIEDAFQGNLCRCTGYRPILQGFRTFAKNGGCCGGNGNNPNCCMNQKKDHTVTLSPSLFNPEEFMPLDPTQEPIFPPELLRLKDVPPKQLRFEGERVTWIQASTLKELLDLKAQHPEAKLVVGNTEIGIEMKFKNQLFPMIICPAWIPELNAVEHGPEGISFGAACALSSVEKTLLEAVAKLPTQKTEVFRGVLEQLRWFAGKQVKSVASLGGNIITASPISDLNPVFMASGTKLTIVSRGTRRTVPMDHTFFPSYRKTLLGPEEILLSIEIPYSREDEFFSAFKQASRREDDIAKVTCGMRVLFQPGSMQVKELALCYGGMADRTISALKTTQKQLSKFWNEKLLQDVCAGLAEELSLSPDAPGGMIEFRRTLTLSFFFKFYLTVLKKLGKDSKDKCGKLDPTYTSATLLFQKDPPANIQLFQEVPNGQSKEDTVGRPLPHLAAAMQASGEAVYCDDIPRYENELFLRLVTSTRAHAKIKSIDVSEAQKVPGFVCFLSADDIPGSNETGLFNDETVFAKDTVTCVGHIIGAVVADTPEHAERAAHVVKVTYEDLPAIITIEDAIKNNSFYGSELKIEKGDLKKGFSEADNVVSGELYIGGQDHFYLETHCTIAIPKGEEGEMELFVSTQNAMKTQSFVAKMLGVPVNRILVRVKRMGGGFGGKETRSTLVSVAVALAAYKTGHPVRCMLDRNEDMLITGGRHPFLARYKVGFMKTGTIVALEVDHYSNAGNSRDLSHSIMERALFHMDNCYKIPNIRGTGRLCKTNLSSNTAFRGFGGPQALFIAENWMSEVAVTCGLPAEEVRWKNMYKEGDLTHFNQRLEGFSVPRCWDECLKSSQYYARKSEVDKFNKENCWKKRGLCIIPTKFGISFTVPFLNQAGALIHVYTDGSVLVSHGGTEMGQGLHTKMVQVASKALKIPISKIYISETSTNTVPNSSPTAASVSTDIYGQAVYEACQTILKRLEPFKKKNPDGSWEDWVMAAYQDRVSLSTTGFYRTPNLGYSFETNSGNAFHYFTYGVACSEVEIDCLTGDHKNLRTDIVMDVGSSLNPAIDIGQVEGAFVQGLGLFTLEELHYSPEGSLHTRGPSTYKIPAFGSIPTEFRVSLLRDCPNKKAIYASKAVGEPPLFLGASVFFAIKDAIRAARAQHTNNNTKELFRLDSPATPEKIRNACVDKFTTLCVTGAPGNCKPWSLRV
Experiment: Assay of XO-inhibitory activity and kinetics (oxidation of xanthine to uric acid, absorbance at 295 nm)
Format: biochemical, bovine milk
Conditions: sample concentration 25 µM; read-out: Xanthine Oxidase Inhibition %
property.label: inhibition at 25 µM (%)

{"molecule": "CCCC(=O)C1=C(O)C(C)(C)C(O)=C(Cc2c(O)c(C)c(O)c(C(=O)CCC)c2O)C1=O", "experimental.value": 54.4}
{"molecule": "CCCC(=O)c1c(O)c(C)c(O)c(CC2=C(O)C(C)(C)C(O)=C(C(=O)CC)C2=O)c1O", "experimental.value": 62.1}
{"molecule": "O=c1[nH]c(=O)c2c[nH]nc2[nH]1 [Oxypurinol, reference compound]", "experimental.value": 42.2}
{"molecule": "CCCC(=O)c1c(O)c(C)c(O)c(CC2=C(O)C(C)(C)C(O)=C(C(C)=O)C2=O)c1O", "experimental.value": 68.1}
{"molecule": "CCC(=O)c1c(O)c(C)c(O)c(CC2=C(O)C(C)(C)C(O)=C(C(C)=O)C2=O)c1O", "experimental.value": 79.6}

* * *

Target: xanthine oxidase (XO) (Bos taurus, UniProt P80457)
Construct: 20 µL of 0.1 unit XO enzyme (bovine milk) in buffer; from tissue; host or cells: bovine milk
Test: Assay of XO-inhibitory activity and kinetics (oxidation of xanthine to uric acid, absorbance at 295 nm)
Format: biochemical, bovine milk
Settings: Lineweaver–Burk and Dixon plots

{"cpd.smiles": "CCCC(=O)c1c(O)c(C)c(O)c(CC2=C(O)C(C)(C)C(O)=C(C(C)=O)C2=O)c1O", "Xanthine Oxidase Kinetic Mode": "Noncompetitive"}
{"cpd.smiles": "CCCC(=O)c1c(O)c(C)c(O)c(CC2=C(O)C(C)(C)C(O)=C(C(=O)CC)C2=O)c1O", "Xanthine Oxidase Kinetic Mode": "Noncompetitive"}
{"cpd.smiles": "CCCC(=O)C1=C(O)C(C)(C)C(O)=C(Cc2c(O)c(C)c(O)c(C(=O)CCC)c2O)C1=O", "Xanthine Oxidase Kinetic Mode": "Noncompetitive"}

* * *

Biological target: xanthine oxidase (XO) (Bos taurus)
Construct: 20 µL of 0.1 unit XO enzyme (bovine milk) in buffer
Experiment: Assay of XO-inhibitory activity and kinetics (oxidation of xanthine to uric acid, absorbance at 295 nm)
Conditions: isolated compounds and positive controls; substrate xanthine; pH 7.5, 37 °C
Mark Y only for IC50 values smaller than 10 µM; exact matches and larger values are N.

{"compound": "CCCC(=O)C1=C(O)C(C)(C)C(O)=C(Cc2c(O)c(C)c(O)c(C(=O)CCC)c2O)C1=O", "target.of.assay": "xanthine oxidase (XO) (Bos taurus)", "label": "N"}
{"compound": "CCCC(=O)c1c(O)c(C)c(O)c(CC2=C(O)C(C)(C)C(O)=C(C(=O)CC)C2=O)c1O", "target.of.assay": "xanthine oxidase (XO) (Bos taurus)", "label": "N"}
{"compound": "CCC(=O)c1c(O)c(C)c(O)c(CC2=C(O)C(C)(C)C(O)=C(C(C)=O)C2=O)c1O", "target.of.assay": "xanthine oxidase (XO) (Bos taurus)", "label": "Y"}
{"compound": "O=c1[nH]c(=O)c2c[nH]nc2[nH]1 [Oxypurinol, reference compound]", "target.of.assay": "xanthine oxidase (XO) (Bos taurus)", "label": "N"}
